study_system: rat lens AR (Rattus norvegicus, UniProt P07943)
Construct: Rat lens (RL) homogenate was prepared according to the modified method of Hayman and Kinoshita; from tissue; host or cells: lens of male Sprague-Dawley rats (homogenate supernatant, partially purified)
assay_protocol: HPLC microfractionation rat lens AR assay
Type: biochemical
Parameters: concentration or dose not given beside the values
experimental_setup: amount of efficacy in HPLC microfractionation (Table 3)
List of RLAR inhibition, Inhibition (%) values.
Numbers only; they are read as %.

Can you look up the measured RLAR inhibition, Inhibition (%) of O=c1c(-c2ccc(O)cc2)coc2cc(O)cc(O)c12 for me?
38.54

Another: COc1ccc(-c2coc3cc(O)ccc3c2=O)cc1
30.11

Another: O=c1c(-c2ccc(O)cc2)coc2cc(O)ccc12
28.14

Another: COc1cc(/C=C/C(=O)O)ccc1O [Compound 3, trans-ferulic acid]
5.21
